Assignment: determine reported polymerase ribozyme fitness (log ratio) for the given variants.
B1: TPR t1 (parent)
chain: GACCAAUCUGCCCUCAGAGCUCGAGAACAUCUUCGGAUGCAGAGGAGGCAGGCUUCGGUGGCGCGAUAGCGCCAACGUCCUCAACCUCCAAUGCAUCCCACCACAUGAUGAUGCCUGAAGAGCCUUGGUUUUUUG

- Variants of: B1
- Measurement Description: polymerase ribozyme fitness, log enrichment relative to wild type (log ratio); higher = more active; in vitro selection for triplet polymerase activity
No unit in the answer, only the number.

Q: Which polymerase ribozyme fitness (log ratio) value belongs to G51U U67A A75U C88A U106A U112C ?
Ans: -6.98

Q: What measured polymerase ribozyme fitness (log ratio) goes with A6U C12G G45C A74U C94U ?
Ans: -0.942

Q: # query: polymerase ribozyme fitness (log ratio) of entry U9G G10U C12G A111G
Ans: 0.61

Q: Name the recorded polymerase ribozyme fitness (log ratio) for A91U A121C C124A .
Ans: 0.449

Q: What does the record list as polymerase ribozyme fitness (log ratio) for U9G C70U ?
Ans: -0.679

Q: Which polymerase ribozyme fitness (log ratio) value is on record for C12U C85G ?
Ans: -0.35

Q: I'd like to know its polymerase ribozyme fitness (log ratio). The variant in question is C12U C64A
Ans: -5.62

Q: What value of measured polymerase ribozyme fitness (log ratio) is listed for G60A G69U C82U C85G U129A ?
Ans: -4.53

Q: // lookup polymerase ribozyme fitness (log ratio) for G10U C62U C88U C89G A121G U132C
Ans: 0.563

Q: Query (variant): C34U C56A ; field requested: polymerase ribozyme fitness (log ratio)
Ans: -5.06

Q: Record request: polymerase ribozyme fitness (log ratio) value, item C15U U32C C89A A119G G128C
Ans: -3.29

Q: Bench note: what polymerase ribozyme fitness (log ratio) did C22G G36C G42U A91U U112A U129G show?
Ans: -4.65

Q: Please look up its polymerase ribozyme fitness (log ratio): C11U A41U G69U A74G G117A U125A U130A U131A
Ans: -6.86

Q: Bench note: what polymerase ribozyme fitness (log ratio) did C56U C115G show?
Ans: -2.56

Q: Would you kindly share the measured polymerase ribozyme fitness (log ratio) for C22A C31A C64G C97U C115A G127U U129G U130G ?
Ans: -6.15

Q: Fill blank: measured polymerase ribozyme fitness (log ratio) of the variant G69U C86G C94U C124G G135A is ____.
Ans: 0.0412

Q: Tell me the measured polymerase ribozyme fitness (log ratio) of U14A U21G G120U C124U , please.
Ans: -0.621

Q: Recorded polymerase ribozyme fitness (log ratio) of U7G C94G , please.
Ans: -0.426

Q: Any idea what polymerase ribozyme fitness (log ratio) was measured for U9A G42A U87C C101A G120A ?
Ans: -1.63

Q: // polymerase ribozyme fitness (log ratio) lookup, key: C3G A95G C101A A111C
Ans: -2.16

Q: So what's the measured polymerase ribozyme fitness (log ratio) for this one? C15A C72U G93U C114G
Ans: -5.25

Q: Look up polymerase ribozyme fitness (log ratio): A29U C49G C101G C124G
Ans: -3.93

Q: For the variant G47A C86A A90G G117U G120C , what polymerase ribozyme fitness (log ratio) is on record?
Ans: -0.329

Q: Please look up its polymerase ribozyme fitness (log ratio): G61A U67A
Ans: -6.59

Q: Can you share its polymerase ribozyme fitness (log ratio)? I mean this variant: C11A C49A C53U A90U U126C
Ans: -4.54

Q: Endpoint output: polymerase ribozyme fitness (log ratio) of C34A G71U U92A C114G . Value?
Ans: -7.83

Q: For the variant shown here, A50U C56A C82G U87G G117A U132A , give the reported polymerase ribozyme fitness (log ratio).
Ans: -4.26

Q: Using the record for C62G C123A , report its polymerase ribozyme fitness (log ratio).
Ans: -1.01

Q: Using the record for U9G C72G , report its polymerase ribozyme fitness (log ratio).
Ans: -0.437

Q: Field request: polymerase ribozyme fitness (log ratio) | item: A46U C70G C85U C104G
Ans: -7.09

Q: I'd like to know its polymerase ribozyme fitness (log ratio). The variant in question is C20U G57A G63A C115A
Ans: -3.54

Q: Requested field: polymerase ribozyme fitness (log ratio). Item: G42A C85U
Ans: -2.41

Q: Name the recorded polymerase ribozyme fitness (log ratio) for A5G G48U C73A C97A .
Ans: -5.81

Q: Item A2U C56A U106A C115G has what recorded polymerase ribozyme fitness (log ratio)?
Ans: -4.51

Q: I have this variant here, C70G C85A U106A U130A , and I need its recorded polymerase ribozyme fitness (log ratio).
Ans: -4.47

Q: What value of polymerase ribozyme fitness (log ratio) has been recorded for this entry: U55C G71C C104U
Ans: -0.984

Q: Field request: polymerase ribozyme fitness (log ratio) | item: C8U A18U A50U G69C C82A C124G
Ans: -3

Q: What polymerase ribozyme fitness (log ratio) value was documented for this variant, G93C G110U G120A ?
Ans: -3.34

Q: Which polymerase ribozyme fitness (log ratio) value belongs to G39C U54A A74G ?
Ans: -0.531

Q: Which polymerase ribozyme fitness (log ratio) reading was recorded for the variant A2C C3U U59C C104A ?
Ans: -4.21

Q: State the recorded polymerase ribozyme fitness (log ratio) for this entry: C11G C73G C101U U112C G117C
Ans: -3.04

Q: Suppose we examine the variant C12U G47A ; what polymerase ribozyme fitness (log ratio) value has been reported?
Ans: -0.468

Q: polymerase ribozyme fitness (log ratio) for G48C U106C ?
Ans: -1

Q: Dear colleague, I am looking for the recorded polymerase ribozyme fitness (log ratio) of the following variant: C12A G61U C70U U81G
Ans: -4.98

Q: Param item = C70A C85U G113A ; retrieve measured polymerase ribozyme fitness (log ratio).
Ans: -3.33

Q: Quick one: polymerase ribozyme fitness (log ratio) of U78G C88U U92G G120C U134G ?
Ans: -1.71
